target: Runt-related transcription factor 1 (Homo sapiens) + Core-binding factor subunit beta (Homo sapiens) (UniProt Q01196+Q13951); test: qHTS Assay for Compounds Blocking the Interaction Between CBF-beta and RUNX1 for the Treatment of Acute Myeloid Leukemia: Hit Validation with Orthogonal Assay; conditions: CBFbeta-RUNX1 binding orthogonal assay, biochemical; series mostly up to 41 µM
Sequence (Q01196 whole entry, looked up): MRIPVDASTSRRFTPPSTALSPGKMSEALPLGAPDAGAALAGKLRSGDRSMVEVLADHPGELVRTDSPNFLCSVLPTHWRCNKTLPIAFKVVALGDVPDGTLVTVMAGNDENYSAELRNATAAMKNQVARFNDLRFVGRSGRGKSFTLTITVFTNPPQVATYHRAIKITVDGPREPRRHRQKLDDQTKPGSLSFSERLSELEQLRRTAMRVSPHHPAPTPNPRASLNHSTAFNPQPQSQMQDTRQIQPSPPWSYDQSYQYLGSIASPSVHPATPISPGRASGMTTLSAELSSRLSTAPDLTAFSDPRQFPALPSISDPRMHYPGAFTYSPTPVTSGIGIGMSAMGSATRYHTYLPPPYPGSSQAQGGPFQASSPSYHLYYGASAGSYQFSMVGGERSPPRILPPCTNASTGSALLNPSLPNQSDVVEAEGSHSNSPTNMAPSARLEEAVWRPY
Sequence (Q13951 whole entry, looked up): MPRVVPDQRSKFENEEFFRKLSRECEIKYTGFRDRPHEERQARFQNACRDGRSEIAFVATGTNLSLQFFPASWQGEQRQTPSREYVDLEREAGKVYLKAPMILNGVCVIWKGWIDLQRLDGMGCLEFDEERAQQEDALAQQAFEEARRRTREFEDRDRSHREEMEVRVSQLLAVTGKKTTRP
Among all 1,600 compounds or so, about 25 (2%) were called active. Not shown: some 7% with an inconclusive outcome. The call rests on the fitted dose curve; in most records, active means well fitted inhibition curve with a large enough effect; inconclusive means small, poorly fitted or top-dose-only effect, or effect the other way; inactive means no such curve, though single readings can be large or run the other way. The sample holds actives, similar compounds and a random draw of the others, so the mix is not that of the screen.
Thanks in advance; please answer with one of these: Y for active, N for inactive

CC(C)(O)P(=O)(O)CCc1ccccc1 | N
NCCc1ccc(O)c(O)c1 | N
Cn1cccc1/C=C1\SC(=S)N(NC(=O)c2ccc(F)cc2)C1=O | N

Enquiry: In this assay, the call recorded for "Cc1cc(=O)n2[nH]c(CCC(=O)O)nc2n1" was what?
Return: N

Enquiry: In this assay, the call recorded for O=C(O)CC(CCc1ccccc1)OC1OC(CO)C(O)C(O)C1O (configuration not stated) was what?
Return: N

Enquiry: In this assay, the call recorded for "COc1c(/C=N/NC(=O)c2ccncc2)c(CCN(C)C(C)=O)cc2c1OCO2" was what?
Return: N

Enquiry: In this assay, the call recorded for "CCSc1cc(Cl)nc(N)n1" was what?
Return: N

Enquiry: In this assay, the call recorded for "Cc1ccc(N/N=C(\C#N)C(=N)N2CCCCC2)cc1" was what?
Return: N

Enquiry: In this assay, the call recorded for "COc1cscc1C(=O)O" was what?
Return: N

Enquiry: In this assay, the call recorded for "CC(C)(C)NC(=O)c1cccc2c1C(=O)c1ccccc1-2" was what?
Return: N

Enquiry: In this assay, the call recorded for "COC(=O)/C(=C\Nc1ccc(Oc2ccc(F)cc2F)nc1)NC(=O)c1ccccc1" was what?
Return: N

Enquiry: In this assay, the call recorded for "Cc1nnc(NC(=O)c2ccccc2NC(=O)c2ccccc2)s1" was what?
Return: N

Enquiry: In this assay, the call recorded for "CCc1nc2ccccc2nc1N1CCN(S(=O)(=O)c2ccc(Cl)cc2)CC1" was what?
Return: N

Enquiry: In this assay, the call recorded for "CC(C)(C)c1ccc(C(=O)Nc2ccc(S(N)(=O)=O)cc2)cc1" was what?
Return: N

Enquiry: In this assay, the call recorded for "COc1ccc(C(=O)COc2ccc(C)cc2NC(C)=O)cc1" was what?
Return: N
